targetOfAssay: RSV fusion glycoprotein (RSV F) on RSV-A2 virus (respiratory syncytial virus, UniProt P03420 26-574)
protocolDetails: cell-based or functional assay
Overview of recorded Neutralization IC50 (RSV subtype A) for various binders
reportedProperty: Neutralization IC50 (RSV subtype A)

>>> observedmeasurement("ADI-41371 (antibody, V domains shown, IgG1; also called Ab 668) VH: QVQLQESGPRLVKPSQTLSLTCTVSGGSITTGEHYWSWIRQSPGRGLEWIGYISYSGSTYYNPSLKSRVTISVDTSKTRISLNLRSVTAADSAVYYCARDQEDSDYIWGSSRVFDIWGQGTMVTVSS VL: ETTLTQSPGTLSLSPGERATLSCRASQNVGNNYLAWYQQKPGQAPRVLIQDASTRATGIPDRFSGSGSGTDFTLTISRLEPEDFAVYHCQQYGSAPWTFGQGTKVEIK")
"> 25 µg/mL"
>>> observedmeasurement("ADI-41397 (antibody, V domains shown) VH: EVQLVESGGGLVKPGGSLRLSCAASGFKFSSYYLNWVRQAPGKGLEWVSSISGGSSYINYADSVKGRFTISRDNAKNTLDLQMSNLRAEDTAVYYCARVVGATGPLYFDLWGRGTLVTVSS VL: QSVLTQPPSVSGAPGQRVTISCTGSSSNIGAGYDVHWYQQFPGTAPKLLIYGNNNRPSGVPDRFSGSKSGTSASLAITGLQAEDEADYYCQSYDSSLSGYVFGAGTKVTVL")
"0.09 µg/mL"
>>> observedmeasurement("ADI-41436 (antibody, V domains shown, IgG1; also called Ab 720) VH: EVQLLESGGGVVQPGRSLRLSCAASGFTFSDYAMHWVRQAPGKGLEWVALISFDGSNEYYADSVKGRFTISRDNSRNTVYLQVNTLRPDDTAVFYCARDSHLRLTTRGWGSFDYWGQGTLVTVSS VL: NFMLTQPHSVSESPGKTVTIACTRSSGSIARNYVQWYQQRPGRSPTMVIYEDNQRPSGVPDRFSGSIDTSSNSASLTISGLKTEDEADYYCQPYDPDNLVFGGGTKLTVL")
"> 25 µg/mL"
